System: RARa:RXR (NR concentration 270 nM, RXRa partner concentration 90 nM)
Protocol Summary: PBM binding z-score (relative to random genomic background probes); higher = stronger binding; sequences stand for … in GC…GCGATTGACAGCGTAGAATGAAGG
Hi, to clarify the labels: met covers PBM binding z-score from 2 upward, not met covers anything below 2.

{"columns": ["Monomer Sequence", "Class Label"],
 "data": [
  ["TCTCGGAGGACACGAAGGTCAGAGATTTCCAGAG", "met"],
  ["CCTAGTTGGTCAGGAGGTCAGACACCGGATATGA", "met"],
  ["TCTAGTTGGTCACGGAAGTCACACACGACGGGTA", "not met"],
  ["ATCGAAAGGTCCAGGTGAGTATAGAGAAAGGGAA", "not met"],
  ["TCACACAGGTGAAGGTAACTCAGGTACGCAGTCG", "not met"],
  ["GCTATTAGTTGAAAGGGCTACCGAATGATTCTCG", "not met"],
  ["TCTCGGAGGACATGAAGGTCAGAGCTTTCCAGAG", "not met"],
  ["TAGCCTTGGTCATGCGGGCCAGTATAGTGTCGGC", "not met"],
  ["GCTTGTAGATCAAGGTTAAGATAGACTAAGCTAA", "not met"],
  ["CCGACTGGGGCCAAGGTTACCATACTCAGTACGA", "not met"],
  ["CCGACTGGGGGAAGGTTACCATAACGCACAGCCA", "not met"],
  ["CCTACTGGGCCATCAGGCCATTGATATCAACGTT", "not met"],
  ["TCAATTAGTTGATTAGGGCAACCGAAACAGCGGA", "not met"],
  ["CGTCCAAGGTCAGAGAGGACAGTGAATGCCGAGT", "met"],
  ["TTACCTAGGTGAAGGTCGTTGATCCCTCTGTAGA", "not met"],
  ["TCTTGGAGATCAACAGGAGGTTAAGAAAGATCGA", "not met"],
  ["CGAACTAGGTCATTGACAGGACAGTCAATAGTAA", "met"],
  ["CCTTACGGGTCACTCCAGGTTATAGTATCGGAGT", "met"],
  ["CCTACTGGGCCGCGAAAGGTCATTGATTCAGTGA", "met"],
  ["TCATATGGGTAAAAGGTGAAAGTCGGTGTGGTAA", "met"],
  ["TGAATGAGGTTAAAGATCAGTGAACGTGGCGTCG", "met"],
  ["CCGACTGGGGCCGAAAGGTTACCATACCATCCGG", "not met"],
  ["TCATATAGGTAATACAGCTGAAAGTCGGCATCTA", "not met"],
  ["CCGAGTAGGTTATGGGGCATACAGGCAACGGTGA", "not met"],
  ["TCTAGTTGGTCAAAGGTCATACACTCGAAATGCG", "met"],
  ["TGAATGGGGTTAAAGATCAGGGAACGTGGCGTCG", "met"],
  ["CCTTACGGGTCGCTCCAGGTTATAGCATCGGAGT", "not met"],
  ["ACATACAGGTGATGAAGGTAACTCAGGCTATCAT", "not met"],
  ["CCAGACAGGTGAGAAGGTAACACAGCCTCGATTA", "not met"],
  ["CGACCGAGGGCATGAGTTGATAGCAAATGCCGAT", "not met"],
  ["CGTCCAAGATCATAGGAGGTCAGTGAAGACAGAT", "met"],
  ["GATACAGGATCAGCTAGAGGCCAGAGTATGGAAA", "not met"],
  ["CCTAGCTGGCCAATCTGGGTCACTCAAGGCTTGA", "not met"],
  ["CGGACTGGGGCAAGGTTACCATAACGCACAGCCA", "not met"],
  ["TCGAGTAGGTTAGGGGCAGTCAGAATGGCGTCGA", "not met"],
  ["CTACCAAGGTGAACATGGTCGTTGATTACTATTC", "not met"],
  ["TCTTGTAGATCAAAGGTTAAGAAGGCCGAAGCCT", "met"],
  ["GCTTGTAGATCAAGGATAAGAAAGACTAAGCTAA", "not met"],
  ["CATACAGGGTCAGCTAGGCCCGAGTAGGGACGGC", "met"],
  ["ATCGAAAGGTCGACGAGGTGTGTATACACCGTTT", "met"],
  ["TCTATTAGTTGATTAGGGCAAGCGAAACAGCGGA", "not met"],
  ["TCGAGTTGGTCACGGAGGTCACACACGACGGGTA", "met"],
  ["CCTACTGGGCCATTCAGACGTCATTGATCATATG", "not met"],
  ["CAAACTAGGTAAAAGGTCAAAGTCGAGCCAACCA", "met"],
  ["ACAGACAGGTGATGAAGCTAACTCAGGCTATCAT", "not met"]
]}

---

Tested on: THRa:RXRa (NR concentration 90 nM, RXRa partner concentration 90 nM)
Protocol Summary: PBM binding z-score (relative to random genomic background probes); higher = stronger binding; sequences stand for … in GC…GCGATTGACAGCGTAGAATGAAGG
Class definitions on PBM binding z-score: lo (below 1), mid (1 to below 2), hi (2 or more)

{"columns": ["Monomer Sequence", "Class Label"],
 "data": [
  ["TCTATTAGTTGATCAGGGCAACCGAAACAGCGGA", "lo"],
  ["CCTACTGGGCCAAAGGGCATTGATTCCAATGCTC", "lo"],
  ["ATCGAAAGGTCGAAGGTGTGTATACCCACCCGAA", "mid"],
  ["TAGCCTAGGTCAGATCGTGCCAGTATACGCTATA", "hi"],
  ["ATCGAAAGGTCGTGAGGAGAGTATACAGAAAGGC", "hi"],
  ["TCTAGTTGGTCACGGTGGTCACACACGACGGGTA", "lo"],
  ["TCATATAGGTAGTACAGGTGAAAGTCGGCATCTA", "lo"],
  ["CGTCAAAGTTCAAGGTAACGTACCAGAAAGCAGC", "hi"],
  ["GCGACTGGGGGATCAGCAGGTTACCATAACTTAA", "mid"],
  ["GTACCAAGGTGAATAGGTTGTTGATGAGTAGGCG", "mid"],
  ["TCTAGTTGGTCAAAGGTCACACGCTCGAAATGCG", "hi"],
  ["CGAACTAGGTCATTGACGGGACAGTGAATAGTAA", "hi"]
]}

---

Tested on: RXRa homodimer (NR concentration 180 nM)
Protocol Summary: PBM binding z-score (relative to random genomic background probes); higher = stronger binding; sequences stand for … in GC…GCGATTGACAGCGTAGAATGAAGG
Class definitions on PBM binding z-score: range 1 (below 2), range 2 (2 to below 4), range 3 (4 or more)

{"columns": ["Monomer Sequence", "Class Label"],
 "data": [
  ["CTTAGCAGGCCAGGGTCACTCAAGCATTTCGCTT", "range 2"],
  ["GCAGACAGGTGCAACGCAGGTAACTCAGGGTGGC", "range 1"],
  ["CGTCCAAGGTCAAAGGTCAGTTAAGAGATGACGG", "range 3"],
  ["ATTTCTAGGTAACAAGTTCAGTGAAAGAGAGGAC", "range 1"],
  ["CAAACTAGGTCAAGGTAAAAGTCGGTTTGTGCCA", "range 2"],
  ["ACTAGCAGGCGAAGGGTCACTCAAGATTAGTCCG", "range 2"],
  ["CCAGAAAGGTGAGAAGGTAACTCAGCCTCGATTA", "range 1"],
  ["GATACAGGGTCAGCTAGAGTCCAGAGTATGGAAA", "range 3"],
  ["GCTTGTAGATCAAAGTTAAGAAAGACTAAGCTAA", "range 1"],
  ["ACTAGTTGGACAGCTGAGGTCACACACAATTCGG", "range 2"],
  ["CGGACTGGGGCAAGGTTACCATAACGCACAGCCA", "range 1"],
  ["TCGAGTAGGTTCGGGGCATTCAGAATGGCGTCGA", "range 1"],
  ["ACTACCAGGCCAAGGGTCACTCAAGATTAGTCCG", "range 3"],
  ["CTCGAAAGGTCGTGCTCCGGTGAGTATACCAAAC", "range 3"],
  ["CCTAGTTGGTCAAGGTCGCACACGCTATAGGTAC", "range 1"],
  ["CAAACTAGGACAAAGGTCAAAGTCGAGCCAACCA", "range 3"],
  ["ACTCGGAGGACAAAGGTCAGAGATACGCCAGTGA", "range 3"],
  ["TCTTGTAGATCAAGCAGGTTATGAAAGCCTGAGT", "range 1"],
  ["TTACCAAGGTGAGTTGAGGTCGTTGATCCAACTC", "range 1"],
  ["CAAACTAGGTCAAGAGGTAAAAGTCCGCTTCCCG", "range 2"],
  ["CGTCCATGGTCAATGCTAGGTCAGTGAAAGCATT", "range 1"],
  ["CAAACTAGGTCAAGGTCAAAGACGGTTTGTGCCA", "range 3"],
  ["GCTCGGAGGACAAGGTCAGAGCCTTGTCCGTAGA", "range 2"]
]}
